# Measured target: Sodium-dependent dopamine transporter (Rattus norvegicus, UniProt P23977)
# Sequence (P23977 whole entry): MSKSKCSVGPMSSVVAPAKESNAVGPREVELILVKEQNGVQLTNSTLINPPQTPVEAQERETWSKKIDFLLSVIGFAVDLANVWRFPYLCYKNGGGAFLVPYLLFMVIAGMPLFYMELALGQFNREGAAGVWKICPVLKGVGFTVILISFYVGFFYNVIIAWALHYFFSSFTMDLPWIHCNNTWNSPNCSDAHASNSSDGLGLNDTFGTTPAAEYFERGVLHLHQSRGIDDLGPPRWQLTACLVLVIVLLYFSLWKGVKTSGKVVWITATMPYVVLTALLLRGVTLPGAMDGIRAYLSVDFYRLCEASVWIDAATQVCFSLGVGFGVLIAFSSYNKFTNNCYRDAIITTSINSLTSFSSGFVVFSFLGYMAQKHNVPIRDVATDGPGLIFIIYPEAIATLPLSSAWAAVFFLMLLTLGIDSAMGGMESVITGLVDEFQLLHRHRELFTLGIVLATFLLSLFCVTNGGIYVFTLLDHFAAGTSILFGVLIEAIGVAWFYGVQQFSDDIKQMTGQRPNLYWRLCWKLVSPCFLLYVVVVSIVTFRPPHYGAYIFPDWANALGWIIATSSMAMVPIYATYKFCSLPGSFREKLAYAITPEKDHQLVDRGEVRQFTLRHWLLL
Simple rule here: Ki less than 200 nM is yes (1), otherwise no (0).

# Compound, Group label
rows = [
    ("CN1[C@@H]2CC[C@H]1C[C@@H](OC(c1ccccc1)c1ccccc1F)C2 (stereo partly drawn)", "yes (1)"),
    ("CN1[C@@H]2CC[C@H]1C[C@@H](OC(c1ccccc1)c1ccccc1Cl)C2 (stereo partly drawn)", "no (0)"),
    ("Cc1ccccc1C(O[C@H]1C[C@H]2CC[C@@H](C1)N2C)c1ccccc1 (stereo partly drawn)", "no (0)"),
    ("CN1[C@@H]2CC[C@H]1C[C@@H](OC(c1ccccc1)c1cccc(F)c1)C2 (stereo partly drawn)", "yes (1)"),
    ("CN1[C@@H]2CC[C@H]1C[C@@H](OC(c1ccccc1)c1cccc(C(F)(F)F)c1)C2 (stereo partly drawn)", "yes (1)"),
    ("CN1[C@@H]2CC[C@H]1C[C@@H](OC(c1cccc(F)c1)c1cccc(F)c1)C2", "yes (1)"),
    ("CN1[C@@H]2CC[C@H]1C[C@@H](OC(c1ccccc1)c1cccc(Cl)c1)C2 (stereo partly drawn)", "yes (1)"),
    ("CN1[C@@H]2CC[C@H]1C[C@@H](OC(c1ccccc1)c1ccccc1N)C2 (stereo partly drawn)", "no (0)"),
]

====

# Measured target: Norepinephrine transporter (Rattus norvegicus) (UniProt Q9WTR4)
# Sequence (Q9WTR4 as listed by the source): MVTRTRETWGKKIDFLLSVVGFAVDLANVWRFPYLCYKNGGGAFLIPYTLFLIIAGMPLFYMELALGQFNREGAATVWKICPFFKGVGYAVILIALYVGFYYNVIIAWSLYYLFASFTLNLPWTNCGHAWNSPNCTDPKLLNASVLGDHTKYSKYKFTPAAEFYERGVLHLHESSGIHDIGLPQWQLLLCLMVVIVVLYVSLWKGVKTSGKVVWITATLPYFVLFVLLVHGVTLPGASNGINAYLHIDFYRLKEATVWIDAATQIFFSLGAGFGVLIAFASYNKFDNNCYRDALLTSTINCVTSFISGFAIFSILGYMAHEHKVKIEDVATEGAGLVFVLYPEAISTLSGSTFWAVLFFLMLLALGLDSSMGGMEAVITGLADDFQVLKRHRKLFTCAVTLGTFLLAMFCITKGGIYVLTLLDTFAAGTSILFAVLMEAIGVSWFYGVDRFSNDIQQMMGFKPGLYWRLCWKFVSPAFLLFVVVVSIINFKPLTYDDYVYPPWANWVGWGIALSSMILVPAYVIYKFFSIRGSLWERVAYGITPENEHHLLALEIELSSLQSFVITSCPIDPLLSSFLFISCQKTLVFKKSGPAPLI
# Assay name: Percent inhibition at 10 uM for displacement of [3H]- desmethylimipramine binding at the norepinephrine transporter (NET) in rat cortex.

# Molecule, I
records = [
    ("CN1C2CCC1CC(OC(c1ccccc1)c1ccc(Cl)cc1)C2 (centres undefined)", "32%"),
    ("CN1[C@@H]2CC[C@H]1C[C@@H](OC(c1ccccc1)c1ccccc1Cl)C2 (some centres undefined)", "76.1%"),
    ("CN1[C@@H]2CC[C@H]1C[C@@H](OC(c1ccccc1)c1cccc(F)c1)C2 (some centres undefined)", "82.4%"),
    ("CN1[C@@H]2CC[C@H]1C[C@@H](OC(c1ccccc1)c1cccc(Cl)c1)C2 (some centres undefined)", "74.7%"),
    ("CN1[C@@H]2CC[C@H]1C[C@@H](OC(c1cccc(F)c1)c1cccc(F)c1)C2", "75.6%"),
    ("Cc1ccccc1C(O[C@H]1C[C@H]2CC[C@@H](C1)N2C)c1ccccc1 (some centres undefined)", "66.5%"),
    ("CN1[C@@H]2CC[C@H]1C[C@@H](OC(c1ccccc1)c1ccccc1N)C2 (some centres undefined)", "14%"),
    ("CN1[C@@H]2CC[C@H]1C[C@@H](OC(c1ccccc1)c1ccccc1F)C2 (some centres undefined)", "17.8%"),
    ("CN1[C@@H]2CC[C@H]1C[C@@H](OC(c1ccccc1)c1cccc(C(F)(F)F)c1)C2 (some centres undefined)", "78.5%"),
]

====

# Measured target: Sodium-dependent dopamine transporter (Rattus norvegicus)
# Assay name: Selectivity ratio for [3H]-DA uptake inhibition to DAT binding
# Format: functional
Quick list: Selectivity ratio per entry.
Endpoint label: Selectivity ratio

# Compound, Endpoint label, Obs value
measured = [
    ("CN1[C@@H]2CC[C@H]1C[C@@H](OC(c1ccccc1)c1cccc(F)c1)C2 (some centres undefined)", "Selectivity ratio", 3.7),
    ("CN1[C@@H]2CC[C@H]1C[C@@H](OC(c1ccccc1)c1ccccc1N)C2 (some centres undefined) [AMINOBENZTROPINE]", "Selectivity ratio", 0.2),
    ("CN1[C@@H]2CC[C@H]1C[C@@H](OC(c1ccccc1)c1cccc(Cl)c1)C2 (some centres undefined)", "Selectivity ratio", 10.6),
    ("CN1[C@@H]2CC[C@H]1C[C@@H](OC(c1ccccc1)c1cccc(C(F)(F)F)c1)C2 (some centres undefined)", "Selectivity ratio", 2.4),
]
